Provide the recorded residual ratio (%) of liver S9 fraction 30 min later for the entries that follow.
# test description: Evaluation of stability in liver S9 fraction
# Type: in vitro ADME
# condition set: human liver S9 fraction 2 mg/mL, 2 μM, 37° C.
State just the number; it will be interpreted in %.

For the molecule C[C@@H](C(=O)Oc1ccc(C(=N)N2CCCC2)cc1)N(C)c1cccc(C(=N)N)c1 [compound of Ex. 4] , give its measured residual ratio (%) of liver S9 fraction 30 min later value. 57

For the molecule CC(=N)N1CCC(Oc2ccc(OC(=O)[C@H]3CCCN3c3cccc(C(=N)N)c3)cc2)CC1 [compound of Ex. 11] , give its measured residual ratio (%) of liver S9 fraction 30 min later value. 85

For the molecule N=C(N)c1cccc(N2CCC[C@@H]2COC(=O)c2ccc(C(=N)N3CCCC3)cc2)c1 [compound of Ex. 23] , give its measured residual ratio (%) of liver S9 fraction 30 min later value. 76
